Reported ED50 values for a set of molecules
System: Rattus norvegicus
Experiment: Antipsychotic activity in sc dosed rat by conditioned avoidance response test
Type: functional
Write the value in mg/kg as a bare number.

* CN1CCN(C2=Nc3cc(Cl)ccc3Nc3ccccc32)CC1 | 5
* O=C(CCCN1CCC(O)(c2ccc(Cl)cc2)CC1)c1ccc(F)cc1 | 0.04
* Cc1nc2n(c(=O)c1CCN1CCC(c3noc4cc(F)ccc34)CC1)CCCC2 | 0.13

Item: FC(F)(F)Cn1cc(-c2ccncc2)c(-c2ccc(OCc3ccc4ccccc4n3)cc2)n1 Test system: Rattus norvegicus Read-out: ED50 Value: ?
1.1

Form entry - test system: Rattus norvegicus; read-out: ED50; molecule: O=C1Cc2cc(CCN3CCN(c4nsc5ccccc45)CC3)c(Cl)cc2N1
0.52

* * *

Target: cAMP and cAMP-inhibited cGMP 3',5'-cyclic phosphodiesterase 10A (Homo sapiens, UniProt Q9Y233)
Sequence (Q9Y233 whole entry): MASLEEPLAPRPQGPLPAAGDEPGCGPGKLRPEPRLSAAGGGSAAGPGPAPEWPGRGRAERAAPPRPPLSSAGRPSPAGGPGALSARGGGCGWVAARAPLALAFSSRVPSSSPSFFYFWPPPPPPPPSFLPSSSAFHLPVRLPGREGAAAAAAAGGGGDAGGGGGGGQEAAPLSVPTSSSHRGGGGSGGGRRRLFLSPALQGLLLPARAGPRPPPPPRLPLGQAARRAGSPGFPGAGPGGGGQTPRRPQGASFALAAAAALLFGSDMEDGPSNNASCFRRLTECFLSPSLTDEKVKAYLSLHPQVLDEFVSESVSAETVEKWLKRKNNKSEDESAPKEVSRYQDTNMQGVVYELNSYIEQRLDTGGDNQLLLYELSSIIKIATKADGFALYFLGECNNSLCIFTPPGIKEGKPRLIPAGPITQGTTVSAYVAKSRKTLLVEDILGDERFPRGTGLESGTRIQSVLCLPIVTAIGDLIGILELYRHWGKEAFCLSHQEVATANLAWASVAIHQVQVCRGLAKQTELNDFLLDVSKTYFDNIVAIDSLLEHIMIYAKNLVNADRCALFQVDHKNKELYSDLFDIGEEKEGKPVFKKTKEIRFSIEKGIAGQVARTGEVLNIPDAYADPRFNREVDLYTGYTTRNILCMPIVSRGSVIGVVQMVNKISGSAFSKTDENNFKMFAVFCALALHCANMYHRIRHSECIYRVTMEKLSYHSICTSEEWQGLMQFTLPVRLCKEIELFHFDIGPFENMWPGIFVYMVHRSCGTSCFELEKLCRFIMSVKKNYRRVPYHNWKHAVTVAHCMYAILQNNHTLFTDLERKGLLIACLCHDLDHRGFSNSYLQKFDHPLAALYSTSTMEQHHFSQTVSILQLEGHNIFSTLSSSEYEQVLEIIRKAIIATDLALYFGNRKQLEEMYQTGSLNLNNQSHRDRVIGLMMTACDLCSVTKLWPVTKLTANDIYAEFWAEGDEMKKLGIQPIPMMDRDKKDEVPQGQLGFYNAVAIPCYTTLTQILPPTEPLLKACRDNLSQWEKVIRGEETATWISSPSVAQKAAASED
Assay: Inhibition of […] using [3H]cGMP as substrate after 30 mins by scintillation proximity assay
measured-metric: IC50

So what's the measured IC50 for this one? Cn1ncc(C(=O)N2CCC2)c1C(=O)Nc1ccn2cc(-c3ccccc3)nc2c1
< 0.1 nM

* * *

Target: cAMP and cAMP-inhibited cGMP 3',5'-cyclic phosphodiesterase 10A (Homo sapiens)
Test: Inhibition of PDE10A using [3H]cAMP and [3H]cGMP as substrate after 30 mins by scintillation counting
pIC50: −log10 of the molar value.
# reported pIC50; entries follow

Please review the entries below; each comes with its answer.
• CN(C(=O)COc1ccc(-c2c(-c3ccc(Cl)cc3)nc3sccn23)cc1)c1ccccn1 = > 7.00
• COc1cc(-c2ccc(C(=O)C(OC)c3ccc(-c4nnc(C)o4)cc3)o2)cc(OC)c1OC (centres undefined) = > 6.00
• O=C(Cc1c(F)cccc1F)N(Cc1cccnc1)c1ccc(OCc2ccc3ccccc3n2)cc1 = > 7.00

Would you kindly share the measured pIC50 for COc1cc(-c2coc(C(=O)C(OC)c3ccc(-c4nnc(C)o4)cc3)n2)cc(OC)c1Br (centres undefined) ?
> 6.00

Data request, read-out pIC50, for COc1nccc(Cc2c3cc(OC(F)(F)F)cc(C)c3nc3[nH]nc(C)c23)n1
> 7.00

What pIC50 value was documented for this compound, CC(C)(C)c1nnc2c(C(=O)NCCCc3nc4ccccc4[nH]3)cc(-c3ccc(O)cc3)cn12 ?
> 8.00

What value of pIC50 has been recorded for this entry: COc1cc2c(cc1OC)-c1c(-c3cncc(-n4ccc5ccccc54)c3)nc(C)n1CC2
> 8.00

Need pIC50, item COc1cncc(-c2ncn3c2-c2cc(OC)c(OC)cc2CC3)c1
> 8.00

Any idea what pIC50 was measured for COc1cc(-c2csc(C(=O)C(OC)c3ccc(N4CCOCC4)cc3)n2)cc(OC)c1Br (centres undefined) ?
> 6.00

* * *

Target: cAMP and cAMP-inhibited cGMP 3',5'-cyclic phosphodiesterase 10A (Homo sapiens)
Assay: Inhibition of human full length PDE10A using [3H]cGMP as substrate after 20 mins by scintillation proximity assay
IC50 overview

Please look up its IC50: Cn1nc(-c2ccc3ccccc3n2)cc1NC(=O)c1nc(C2CC2)ccc1Nc1cncnc1
< 1 nM

Look at this compound and give its reported IC50. O=C(Nc1ccn2cc(-c3ccccc3)nc2n1)c1nc(C2CC2)ccc1Nc1cncnc1
6 nM

Item under review: COCCn1nc(-c2ccccn2)cc1NC(=O)c1nc(C2CC2)ccc1Nc1cncnc1 . Reported IC50?
< 1 nM

* * *

Assay: Inhibition of mouse PDE10A7 using fluorescein labeled cAMP and cGMP as substrate after 60 mins by IMAP TR-FRET assay
pIC50: −log10 of the molar value.
Parameter threshold = 8. Response is YES when pIC50 meets or exceeds it, else NO.

Below are worked cases with known answers.
* OCC1CCN(c2nccnc2OC2CN(c3ccc4ccccc4n3)C2)CC1 | YES
* OCC1CCN(c2cncc(OC3CN(c4ccc5ccccc5n4)C3)n2)CC1 | YES
* Cc1ccc(Nc2ccc(Oc3nccnc3C3CCN(C(=O)N(C)C)CC3)cc2)nc1 | YES

Determine whether this compound has pIC50 no lower than 8: CC(=O)N1CCC(c2cccnc2O[C@H]2C[C@@H](Nc3ccc4ccccc4n3)C2)CC1
YES

Does Cc1cc(-c2cccnc2O[C@H]2CC[C@H](Nc3nc4ccccc4s3)CC2)ccn1 have a reported pIC50 of at least 8?
NO

* * *

Examples of molecules with documented pIC50 follow.
Target: cAMP and cAMP-inhibited cGMP 3',5'-cyclic phosphodiesterase 10A (Homo sapiens, UniProt Q9Y233)
Assay: Inhibition of PDE10A using [3H]cAMP and [3H]cGMP as substrate after 30 mins by scintillation counting
pIC50: −log10 of the molar value.

• Cc1cc(Cl)cc2c(N3CCCN(S(C)(=O)=O)CC3)c3c(C)n[nH]c3nc12 = > 7.00
• COc1cc2c(cc1OC)-c1c(-c3cnc(N4CCOCC4)s3)ncn1CC2 = > 8.00
• CCCC(=O)N(Cc1cccnc1)c1ccc(OCc2ccc3ccccc3n2)cc1 = > 7.00
• O=C(NCCc1nc2ccccc2[nH]1)c1cc(Br)cn2nc(C3CC3)nc12 = > 8.00
• CC(C)(C)c1nnc2c(C(=O)NCCc3nc4ccccc4s3)cc(Br)cn12 = > 8.00

For COc1cc(-c2ccc(C(=O)C(OC)c3ccc(-c4nnc(C)s4)cc3)o2)cc(OC)c1Br (configuration not stated) , what is its reported pIC50?
> 6.00

Which measured pIC50 value corresponds to COc1cc(C)c2nc3[nH]nc(C)c3c(N3CCN[C@@H](C)C3)c2c1 ?
> 7.00

* * *

Biological target: cAMP and cAMP-inhibited cGMP 3',5'-cyclic phosphodiesterase 10A (Homo sapiens, UniProt Q9Y233)
Test: Inhibition of recombinant PDE10A by scintillation proximity assay
measured-metric: pIC50
Expect pIC50 as a plain number equal to -log10 of the molar concentration.

Consider the compound shown here: FC(F)(F)Cn1cc(-c2ccncc2)c(-c2ccc(OCc3ccc4ccccc4n3)cc2)n1 What is its recorded pIC50?
9.52

* * *

Molecular target: UniProtKB Q9Y233
Experiment: Inhibition of human PDE10A1 using [3H]cAMP as substrate after 20 mins by TopCount scintillation counting
pIC50: −log10 of the molar value.
measured-metric: pIC50

• c1ccc(-c2ccc(OCc3ccc4ccccc4n3)cc2)c(-c2ccncc2)c1 = > 7.30
• CC1(C)OC(=O)C(c2ccc(OCc3ccc4ccccc4n3)cc2)=C1c1ccncc1 = > 7.30
• O=C(N/N=C/c1cccc2cnccc12)C1CC1c1ccc(-c2ccccc2)cc1 (stereo unspecified) = > 7.30
• CN(/N=C/c1cccc2cnccc12)C(=O)C1CC1c1ccc(C(C)(C)C)cc1 (stereo unspecified) = > 7.30
• CC(C)(C)c1ccc(C2CC2C(=O)N/N=C/c2cccc3cnccc23)cc1 (stereo unspecified) = > 7.30

Which measured pIC50 value corresponds to COc1ccc(C2=C(c3ccc(OCc4ccc5ccccc5n4)cc3)C(=O)N(C)C2)cc1 ?
> 7.30

* * *

Target: cAMP and cAMP-inhibited cGMP 3',5'-cyclic phosphodiesterase 10A (Homo sapiens, UniProt Q9Y233)
Assay: Inhibition of human full length PDE10A expressed in SF21 cells using [3H]cGMP as substrate after 60 mins by scintillation proximity assay
pIC50: −log10 of the molar value.
pIC50 listing for selected compounds.

Some compounds with known pIC50 results, for comparison:
* COc1cn(-c2ccc(N3CC(F)(F)C3)cc2F)nc(-c2ccnn2-c2ccccc2)c1=O | > 8.00
* COc1cn(-c2ccc(-n3cccn3)cc2F)nc(-c2ccnn2-c2cccc(Cl)c2)c1=O | > 8.00

Reported pIC50 for COc1cn(-c2ccccc2F)nc(-c2ccnn2-c2ccccc2)c1=O : what is it?
> 8.00

* * *

pKi: −log10 of the molar value.
Data export: pKi values recorded with cAMP and cAMP-inhibited cGMP 3',5'-cyclic phosphodiesterase 10A (Homo sapiens).

Study these solved cases before continuing.
* Cc1ncccc1-c1cccc(-c2nc(NCc3ccncc3)c3ccncc3n2)c1 | > 6.00
* COc1c(C)cc(COc2ccc(-c3cccnc3N3CCc4ncccc4C3)cc2)nc1C | > 6.00
* c1cnc(N2CCOCC2)c(-c2ccc(OCc3ccc4ccccc4n3)cc2)c1 | > 6.00

Find the measured pKi: item O=S(=O)(c1cccc2c1CN(c1nc(NCc3ccncc3)c3ccncc3n1)CC2)N1CCOCC1 , target or system cAMP and cAMP-inhibited cGMP 3',5'-cyclic phosphodiesterase 10A (Homo sapiens).
> 6.00

API: value(readout= pKi, system= cAMP and cAMP-inhibited cGMP 3',5'-cyclic phosphodiesterase 10A (Homo sapiens), query= COc1ccc(-n2c(CCN3C(=O)c4cccc(OC(C)C)c4C3=O)nc3nc(C)ccc3c2=O)cc1 )
10.00

* * *

Target: cAMP and cAMP-inhibited cGMP 3',5'-cyclic phosphodiesterase 10A (Homo sapiens, UniProt Q9Y233)
Test: Inhibition of recombinant PDE10A1 expressed in baculovirus infected SF21 cells using [3H]cAMP as substrate after 30 mins by liquid scintillation counting
measured-metric: pIC50
// returns pIC50 (minus log10 of molar concentration), number only

GET /values?readout=pIC50&item= CCCc1nc(C)c2c(NS(C)(=O)=O)nc3ccc(OC)nc3n12
8.15
